Experiment: protein stability index of a GFP-peptide fusion (yeast GPS) (PSI 1-4); higher = more stable; sorted into four equal gates, so the index is relative within each strain
Details: ubr1∆
Label scheme for protein stability index: lower than 3 is N, 3 and above is Y.

Q: Does the reported protein stability index for RQINKLIDSLPGVDVSA [SRB7] fall at or above the 3 mark?
A: N

Q: Does the reported protein stability index for SRLTLLLRALKTNEESA [PRP8] fall at or above the 3 mark?
A: N

Q: Does the reported protein stability index for INLTQTYGISVVDVALK [NUT1] fall at or above the 3 mark?
A: N

Q: Does the reported protein stability index for FVFTNEPLTEIKNVIVS [RPP0] fall at or above the 3 mark?
A: N

Q: Does the reported protein stability index for GIKYHATPPLKRFKDME [SMC1] fall at or above the 3 mark?
A: Y

Q: Does the reported protein stability index for IGWCKEDPKRRADTMDF [YJL039C/NUP192] fall at or above the 3 mark?
A: Y

Q: Does the reported protein stability index for RGLTPQEFFFHAMGGRE [RPO21] fall at or above the 3 mark?
A: N

Q: Does the reported protein stability index for VTKILPHLIIQNHNSKS [IRR1] fall at or above the 3 mark?
A: N

Q: Does the reported protein stability index for FMGTAFNQEGDYNFKYG [PRP8] fall at or above the 3 mark?
A: Y

Q: Does the reported protein stability index for VNWLAYTYLYVRMLASP [BRR2] fall at or above the 3 mark?
A: N

Q: Does the reported protein stability index for MDMNEIEDKENSESTTQ [RPT5] fall at or above the 3 mark?
A: Y

Q: Does the reported protein stability index for GISMFDYISGISVGLYD [SKI6] fall at or above the 3 mark?
A: N

Q: Does the reported protein stability index for KLALGIALEGYRLDIIE [RPN2] fall at or above the 3 mark?
A: N

Q: Does the reported protein stability index for IITKNENFLKEVFQLRI [GAL11] fall at or above the 3 mark?
A: N

Q: Does the reported protein stability index for FARLSRLLSLWEVFQMA [RPC82] fall at or above the 3 mark?
A: N

Q: Does the reported protein stability index for SKDGLPNKVKTEDIRIR [RRP6] fall at or above the 3 mark?
A: N

Q: Does the reported protein stability index for LLIRKLPFQRLVREIAQ [HHT1] fall at or above the 3 mark?
A: N

Q: Does the reported protein stability index for SILEEKIAVLNNDKREI [SMC1] fall at or above the 3 mark?
A: Y

Q: Does the reported protein stability index for KKNSSRPMPPIRGPKRR [SMD3] fall at or above the 3 mark?
A: N

Q: Does the reported protein stability index for IDVNLNFARQLLFNNDF [RRP40] fall at or above the 3 mark?
A: N

Q: Does the reported protein stability index for KEKIKGLQDEIMKIGGI [SMC4] fall at or above the 3 mark?
A: Y

Q: Does the reported protein stability index for KGSRFISTLQVKLYGRE [RPB2] fall at or above the 3 mark?
A: N

Q: Does the reported protein stability index for FPSIPLPINGPITNKER [RPC31] fall at or above the 3 mark?
A: N

Q: Does the reported protein stability index for FPFVLKVDNDLRIELQS [SRB8] fall at or above the 3 mark?
A: Y

Q: Does the reported protein stability index for IVPGTYIQERNPTQRPQ [RPS10A] fall at or above the 3 mark?
A: Y

Q: Does the reported protein stability index for EKDCSLRAIEKNDDNSC [YIL149C/MLP2] fall at or above the 3 mark?
A: N
